FYI, the data here is from ChEMBL document CHEMBL1961873.

- tgt: Tyrosine-protein kinase Fes/Fps (Homo sapiens) (UniProt P07332)
- Sequence (P07332 whole entry): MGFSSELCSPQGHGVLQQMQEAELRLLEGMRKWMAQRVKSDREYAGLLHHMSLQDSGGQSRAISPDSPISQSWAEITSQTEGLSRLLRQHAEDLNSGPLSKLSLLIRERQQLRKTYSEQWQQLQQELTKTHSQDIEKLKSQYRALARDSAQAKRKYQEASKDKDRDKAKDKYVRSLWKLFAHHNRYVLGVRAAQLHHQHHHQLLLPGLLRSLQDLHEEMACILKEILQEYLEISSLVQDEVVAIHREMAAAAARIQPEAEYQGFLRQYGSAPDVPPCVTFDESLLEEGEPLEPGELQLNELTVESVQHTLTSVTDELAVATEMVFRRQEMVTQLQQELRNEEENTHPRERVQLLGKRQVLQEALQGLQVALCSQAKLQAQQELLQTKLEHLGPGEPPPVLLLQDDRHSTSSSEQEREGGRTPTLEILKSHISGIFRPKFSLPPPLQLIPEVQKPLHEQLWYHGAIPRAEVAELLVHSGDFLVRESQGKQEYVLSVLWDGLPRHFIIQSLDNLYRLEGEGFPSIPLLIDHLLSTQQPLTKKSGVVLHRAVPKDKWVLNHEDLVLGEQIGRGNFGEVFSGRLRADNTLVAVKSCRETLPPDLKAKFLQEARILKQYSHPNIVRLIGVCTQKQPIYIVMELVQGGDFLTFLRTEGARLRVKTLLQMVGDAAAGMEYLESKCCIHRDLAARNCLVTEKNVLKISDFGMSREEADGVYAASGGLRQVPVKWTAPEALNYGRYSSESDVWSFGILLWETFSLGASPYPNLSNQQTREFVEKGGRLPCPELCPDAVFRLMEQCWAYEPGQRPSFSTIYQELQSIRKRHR
- condition_parameters: at 0.1 µM
- Description: GSK_PKIS: FES mean inhibition at 0.1 uM [Nanosyn]
Entries and their inhibition values follow.
# value in %; strip the unit string

(Q) Can you look up the measured inhibition of CCn1c(-c2nonc2N)nc2c(C#CC(C)(C)O)ncc(OCC3CCNCC3)c21 for me?
(A) 2.17

(Q) Can you look up the measured inhibition of COc1cccc(COc2cc(-n3cnc4ccccc43)sc2C(N)=O)c1 for me?
(A) 0.11

(Q) Can you look up the measured inhibition of Nc1nonc1-c1nc2cnccc2n1C1CCCCC1 for me?
(A) -2.28

(Q) Can you look up the measured inhibition of NC(=O)c1sc(-n2cnc3cc(C(F)(F)F)ccc32)cc1OCc1ccccc1Br for me?
(A) 2.76

(Q) Can you look up the measured inhibition of Cc1cc(-c2ccco2)cc(C)c1/C=C/c1cncc(-c2nn[nH]n2)c1 for me?
(A) 1.75

---
(Q) Can you look up the measured inhibition of CCn1c(-c2nonc2N)nc2c(C#CC(C)(C)O)nc(O[C@@H](CN)c3ccccc3)cc21 for me?
(A) -0.28

(Q) Can you look up the measured inhibition of COc1cc(C=NNc2ncnc3c2cnn3Cc2ccccc2)ccc1O for me?
(A) -4.54

(Q) Can you look up the measured inhibition of CCn1c(-c2nonc2N)nc2c(C#CCN)ncc(OCCCN)c21 for me?
(A) -1.95

(Q) Can you look up the measured inhibition of NS(=O)(=O)c1ccc(N/C=C2\C(=O)Nc3ccc4ncsc4c32)cc1 for me?
(A) 3.55

----------
Entries and their inhibition values follow.
- tgt: Serine/threonine-protein kinase BRSK1 (Homo sapiens) (UniProt Q8TDC3)
- Sequence (Q8TDC3 whole entry): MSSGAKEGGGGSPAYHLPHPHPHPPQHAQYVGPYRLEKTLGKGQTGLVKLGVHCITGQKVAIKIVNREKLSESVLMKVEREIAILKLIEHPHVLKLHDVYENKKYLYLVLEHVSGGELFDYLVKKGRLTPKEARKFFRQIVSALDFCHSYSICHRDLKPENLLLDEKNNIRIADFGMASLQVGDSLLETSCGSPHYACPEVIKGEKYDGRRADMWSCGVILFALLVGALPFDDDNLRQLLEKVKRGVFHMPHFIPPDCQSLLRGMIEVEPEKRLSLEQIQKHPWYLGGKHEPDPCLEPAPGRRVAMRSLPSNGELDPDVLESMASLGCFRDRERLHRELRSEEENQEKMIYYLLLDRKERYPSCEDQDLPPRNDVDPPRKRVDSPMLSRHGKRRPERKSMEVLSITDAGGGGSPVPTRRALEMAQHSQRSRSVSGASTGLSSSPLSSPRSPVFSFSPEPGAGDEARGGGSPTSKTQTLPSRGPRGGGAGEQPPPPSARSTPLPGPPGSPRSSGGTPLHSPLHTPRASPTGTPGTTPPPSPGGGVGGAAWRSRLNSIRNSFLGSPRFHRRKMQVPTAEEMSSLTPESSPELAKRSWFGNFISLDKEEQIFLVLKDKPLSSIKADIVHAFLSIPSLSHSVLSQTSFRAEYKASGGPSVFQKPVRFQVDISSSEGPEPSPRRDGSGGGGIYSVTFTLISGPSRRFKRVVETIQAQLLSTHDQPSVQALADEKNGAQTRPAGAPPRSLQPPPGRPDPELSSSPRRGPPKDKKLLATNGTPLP
- condition_parameters: at 0.1 µM
- Description: GSK_PKIS: BRSK1 mean inhibition at 0.1 uM [Nanosyn]
# value in %; strip the unit string

(Q) Can you look up the measured inhibition of Cc1cc(-c2ccco2)cc(C)c1/C=C/c1cncc(-c2nn[nH]n2)c1 for me?
(A) -0.09

(Q) Can you look up the measured inhibition of Fc1ccc(-c2ncn(C3CCNCC3)c2-c2ccnc(Oc3ccccc3)n2)cc1 for me?
(A) -0.19

(Q) Can you look up the measured inhibition of COc1cc2c(cc1Nc1nc(Nc3ccsc3C(N)=O)c3cc[nH]c3n1)N(C(=O)CN(C)C)CCC2 for me?
(A) 0.07

---
(Q) Can you look up the measured inhibition of COc1cccc(-n2ncc3c(N/N=C/c4ccncc4)ncnc32)c1 for me?
(A) 11.2

(Q) Can you look up the measured inhibition of Nc1nonc1-c1nc2cnccc2n1C1CCCCC1 for me?
(A) -0.55

----------
- tgt: Leukocyte tyrosine kinase receptor (Homo sapiens)
- condition_parameters: at 1 µM
readout_kind: inhibition (%)
# value in %; strip the unit string

Below, 3 compounds whose answers are already recorded.
(Q) Can you look up the measured inhibition of COc1cccc(-n2ncc3c(N/N=C/c4ccncc4)ncnc32)c1 for me?
(A) 6.38

(Q) Can you look up the measured inhibition of CCn1c(-c2nonc2N)nc2c(C#CC(C)(C)O)ncc(OCC3CCNCC3)c21 for me?
(A) 5.07

(Q) Can you look up the measured inhibition of COc1cccc(COc2cc(-n3cnc4ccccc43)sc2C(N)=O)c1 for me?
(A) 2.93

---
(Q) Can you look up the measured inhibition of NS(=O)(=O)c1ccc(N/C=C2\C(=O)Nc3ccc4ncsc4c32)cc1 for me?
(A) 10.4

(Q) Can you look up the measured inhibition of NS(=O)(=O)c1ccc(-c2ccc3c(NC(=O)C4CC4)n[nH]c3c2)cc1 for me?
(A) -0.4

----------
- tgt: Serine/threonine-protein kinase PLK1 (Homo sapiens) (UniProt P53350)
- Sequence (P53350 whole entry): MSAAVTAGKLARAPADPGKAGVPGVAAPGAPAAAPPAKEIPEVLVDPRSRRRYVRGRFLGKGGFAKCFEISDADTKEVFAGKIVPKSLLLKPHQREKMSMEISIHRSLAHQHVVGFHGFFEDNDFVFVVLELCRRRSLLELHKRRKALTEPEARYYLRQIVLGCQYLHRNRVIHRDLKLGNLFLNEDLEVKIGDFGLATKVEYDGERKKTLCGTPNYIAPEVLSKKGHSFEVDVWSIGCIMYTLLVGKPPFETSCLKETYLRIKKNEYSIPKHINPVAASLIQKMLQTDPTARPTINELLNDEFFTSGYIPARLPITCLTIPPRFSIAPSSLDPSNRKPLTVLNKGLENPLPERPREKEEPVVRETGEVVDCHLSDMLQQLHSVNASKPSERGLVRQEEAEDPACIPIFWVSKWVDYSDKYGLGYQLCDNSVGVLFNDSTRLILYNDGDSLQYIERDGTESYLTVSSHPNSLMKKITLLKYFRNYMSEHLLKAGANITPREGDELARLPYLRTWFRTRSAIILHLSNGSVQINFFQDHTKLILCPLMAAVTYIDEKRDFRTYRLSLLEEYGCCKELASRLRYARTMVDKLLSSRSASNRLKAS
- condition_parameters: at 1 µM
readout_kind: inhibition (%)
# value in %; strip the unit string

Below, 2 molecules whose answers are already recorded.
(Q) Serine/threonine-protein kinase PLK1 (Homo sapiens) (UniProt P53350) / inhibition / NS(=O)(=O)c1ccc(N/C=C2\C(=O)Nc3ccc4ncsc4c32)cc1 : value?
(A) 4.96

(Q) Serine/threonine-protein kinase PLK1 (Homo sapiens) (UniProt P53350) / inhibition / CCn1c(-c2nonc2N)nc2c(C#CC(C)(C)O)ncc(OCC3CCNCC3)c21 : value?
(A) 3.24

---
(Q) Serine/threonine-protein kinase PLK1 (Homo sapiens) (UniProt P53350) / inhibition / NC(=O)c1sc(-n2cnc3cc(C(F)(F)F)ccc32)cc1OCc1ccccc1Br : value?
(A) 69.5

----------
Entries and their inhibition values follow.
- tgt: Serine/threonine-protein kinase D1 (Homo sapiens) (UniProt Q15139)
- Sequence (Q15139 whole entry): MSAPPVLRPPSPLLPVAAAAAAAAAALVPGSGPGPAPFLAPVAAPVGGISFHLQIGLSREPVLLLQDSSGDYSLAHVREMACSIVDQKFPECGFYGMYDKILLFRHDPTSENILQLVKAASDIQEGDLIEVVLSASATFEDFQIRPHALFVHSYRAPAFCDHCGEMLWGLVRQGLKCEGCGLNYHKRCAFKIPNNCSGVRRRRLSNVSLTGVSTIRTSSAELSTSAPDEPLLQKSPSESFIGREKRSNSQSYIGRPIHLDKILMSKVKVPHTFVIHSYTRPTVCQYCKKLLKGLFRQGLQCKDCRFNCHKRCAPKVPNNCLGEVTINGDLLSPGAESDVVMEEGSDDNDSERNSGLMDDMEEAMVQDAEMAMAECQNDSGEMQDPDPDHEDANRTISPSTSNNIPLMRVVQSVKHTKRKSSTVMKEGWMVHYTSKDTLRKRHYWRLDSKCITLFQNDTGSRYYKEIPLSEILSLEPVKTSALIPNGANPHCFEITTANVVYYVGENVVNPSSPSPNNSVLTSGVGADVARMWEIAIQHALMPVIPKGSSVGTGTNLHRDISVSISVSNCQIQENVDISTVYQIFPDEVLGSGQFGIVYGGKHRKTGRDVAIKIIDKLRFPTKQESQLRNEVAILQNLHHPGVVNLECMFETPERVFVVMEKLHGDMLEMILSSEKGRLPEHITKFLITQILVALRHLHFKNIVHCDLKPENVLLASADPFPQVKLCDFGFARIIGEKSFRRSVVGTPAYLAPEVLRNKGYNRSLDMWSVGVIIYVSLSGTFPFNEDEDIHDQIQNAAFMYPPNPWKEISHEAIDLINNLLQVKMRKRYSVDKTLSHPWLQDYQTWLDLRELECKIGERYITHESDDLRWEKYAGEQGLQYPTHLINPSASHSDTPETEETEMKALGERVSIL
- condition_parameters: at 0.1 µM
# value in %; strip the unit string

(Q) Serine/threonine-protein kinase D1 (Homo sapiens) (UniProt Q15139) / inhibition / COc1cc(C=NNc2ncnc3c2cnn3Cc2ccccc2)ccc1O : value?
(A) -4.01

(Q) Serine/threonine-protein kinase D1 (Homo sapiens) (UniProt Q15139) / inhibition / COc1cccc(COc2cc(-n3cnc4ccccc43)sc2C(N)=O)c1 : value?
(A) 0.37

(Q) Serine/threonine-protein kinase D1 (Homo sapiens) (UniProt Q15139) / inhibition / CCn1c(-c2nonc2N)nc2c(C#CC(C)(C)O)ncc(OCC3CCNCC3)c21 : value?
(A) -0.45

(Q) Serine/threonine-protein kinase D1 (Homo sapiens) (UniProt Q15139) / inhibition / Cc1cc(-c2ccco2)cc(C)c1/C=C/c1cncc(-c2nn[nH]n2)c1 : value?
(A) 0.58

(Q) Serine/threonine-protein kinase D1 (Homo sapiens) (UniProt Q15139) / inhibition / NC(=O)c1sc(-n2cnc3cc(C(F)(F)F)ccc32)cc1OCc1ccccc1Br : value?
(A) 1.33

---
(Q) Serine/threonine-protein kinase D1 (Homo sapiens) (UniProt Q15139) / inhibition / COc1cc2c(cc1Nc1nc(Nc3ccsc3C(N)=O)c3cc[nH]c3n1)N(C(=O)CN(C)C)CCC2 : value?
(A) 3.95

(Q) Serine/threonine-protein kinase D1 (Homo sapiens) (UniProt Q15139) / inhibition / Fc1ccc(-c2ncn(C3CCNCC3)c2-c2ccnc(Oc3ccccc3)n2)cc1 : value?
(A) -1.04

(Q) Serine/threonine-protein kinase D1 (Homo sapiens) (UniProt Q15139) / inhibition / COc1cccc(-n2ncc3c(N/N=C/c4ccncc4)ncnc32)c1 : value?
(A) 4.37

(Q) Serine/threonine-protein kinase D1 (Homo sapiens) (UniProt Q15139) / inhibition / NS(=O)(=O)c1ccc(N/C=C2\C(=O)Nc3ccc4ncsc4c32)cc1 : value?
(A) 22.4

(Q) Serine/threonine-protein kinase D1 (Homo sapiens) (UniProt Q15139) / inhibition / CCn1c(-c2nonc2N)nc2c(C#CCN)ncc(OCCCN)c21 : value?
(A) -1.16

(Q) Serine/threonine-protein kinase D1 (Homo sapiens) (UniProt Q15139) / inhibition / CCn1c(-c2nonc2N)nc2c(C#CC(C)(C)O)ncc(OC[C@@H]3CCCN3)c21 : value?
(A) 2.68

----------
- Test system: Mast/stem cell growth factor receptor Kit (Homo sapiens), P10721 [V560G]
- Sequence (P10721 whole entry V560G): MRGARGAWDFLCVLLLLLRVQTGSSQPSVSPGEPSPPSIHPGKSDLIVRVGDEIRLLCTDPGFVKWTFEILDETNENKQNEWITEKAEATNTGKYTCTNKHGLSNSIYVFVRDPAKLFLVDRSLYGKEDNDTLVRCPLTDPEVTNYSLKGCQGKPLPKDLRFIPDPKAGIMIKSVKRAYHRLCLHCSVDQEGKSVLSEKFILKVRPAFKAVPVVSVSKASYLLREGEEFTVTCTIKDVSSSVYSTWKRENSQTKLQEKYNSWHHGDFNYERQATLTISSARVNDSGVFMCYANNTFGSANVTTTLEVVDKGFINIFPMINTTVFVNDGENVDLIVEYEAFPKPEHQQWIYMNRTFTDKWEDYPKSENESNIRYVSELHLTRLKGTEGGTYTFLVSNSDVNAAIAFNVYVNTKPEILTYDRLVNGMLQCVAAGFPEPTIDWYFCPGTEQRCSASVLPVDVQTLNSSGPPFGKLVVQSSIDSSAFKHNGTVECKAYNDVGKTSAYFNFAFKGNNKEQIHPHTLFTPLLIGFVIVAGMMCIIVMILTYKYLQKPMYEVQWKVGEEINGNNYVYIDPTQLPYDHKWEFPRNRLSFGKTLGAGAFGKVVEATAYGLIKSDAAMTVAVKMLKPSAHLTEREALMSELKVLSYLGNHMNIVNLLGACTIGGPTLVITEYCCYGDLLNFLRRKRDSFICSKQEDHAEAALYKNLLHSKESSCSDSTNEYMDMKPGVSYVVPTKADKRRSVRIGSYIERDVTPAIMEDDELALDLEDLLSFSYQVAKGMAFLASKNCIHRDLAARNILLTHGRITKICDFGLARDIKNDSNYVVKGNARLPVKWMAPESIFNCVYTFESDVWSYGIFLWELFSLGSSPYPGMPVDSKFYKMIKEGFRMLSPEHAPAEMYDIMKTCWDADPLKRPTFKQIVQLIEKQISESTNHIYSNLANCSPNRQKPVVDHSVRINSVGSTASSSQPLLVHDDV
- condition_parameters: at 1 µM
readout_kind: inhibition (%)
# value in %; strip the unit string

(Q) Can you look up the measured inhibition of NS(=O)(=O)c1ccc(N/C=C2\C(=O)Nc3ccc4ncsc4c32)cc1 for me?
(A) 20.2

(Q) Can you look up the measured inhibition of NC(=O)c1sc(-n2cnc3cc(C(F)(F)F)ccc32)cc1OCc1ccccc1Br for me?
(A) -1.3

(Q) Can you look up the measured inhibition of COc1cccc(COc2cc(-n3cnc4ccccc43)sc2C(N)=O)c1 for me?
(A) -2.16

For the next question, use this molecule.
(Q) Can you look up the measured inhibition of COc1cc(C=NNc2ncnc3c2cnn3Cc2ccccc2)ccc1O for me?
(A) 3.94

----------
Entries and their inhibition values follow.
- tgt: Receptor tyrosine-protein kinase erbB-2 (Homo sapiens) (UniProt P04626)
- condition_parameters: at 1 µM
- Description: GSK_PKIS: ERBB2 mean inhibition at 1 uM [Nanosyn]
# value in %; strip the unit string

(Q) Can you look up the measured inhibition of CCn1c(-c2nonc2N)nc2c(C#CC(C)(C)O)ncc(OCC3CCNCC3)c21 for me?
(A) 5.1

(Q) Can you look up the measured inhibition of Fc1ccc(-c2ncn(C3CCNCC3)c2-c2ccnc(Oc3ccccc3)n2)cc1 for me?
(A) 10.7

(Q) Can you look up the measured inhibition of NS(=O)(=O)c1ccc(N/C=C2\C(=O)Nc3ccc4ncsc4c32)cc1 for me?
(A) 5.6

---
(Q) Can you look up the measured inhibition of Cc1cc(-c2ccco2)cc(C)c1/C=C/c1cncc(-c2nn[nH]n2)c1 for me?
(A) 3.5

(Q) Can you look up the measured inhibition of NS(=O)(=O)c1ccc(-c2ccc3c(NC(=O)C4CC4)n[nH]c3c2)cc1 for me?
(A) 0.41

(Q) Can you look up the measured inhibition of Nc1nonc1-c1nc2cnccc2n1C1CCCCC1 for me?
(A) -1.33

(Q) Can you look up the measured inhibition of COc1cccc(COc2cc(-n3cnc4ccccc43)sc2C(N)=O)c1 for me?
(A) 2.65

(Q) Can you look up the measured inhibition of COc1cc(C=NNc2ncnc3c2cnn3Cc2ccccc2)ccc1O for me?
(A) -3.2

(Q) Can you look up the measured inhibition of NC(=O)c1sc(-n2cnc3cc(C(F)(F)F)ccc32)cc1OCc1ccccc1Br for me?
(A) 4.72
